These measurements were taken from PubChem BioAssay (NCI).

Test system: A498 renal
assay.comment: NCI-60 one-dose screen, 48 h
measurement.context: 10 µM unless noted
About 83,000 compounds went through this panel and 20% of them were active in at least one assay; those are over-represented in the sample as a whole. Calls of active or inactive are those of the source. Rule for the calls: active = growth percent below 10; inactive = the rest.
Outcomes: active, inactive

compound=C(CCCSC1=NCCN1)CCSC1=NCCN1 target_or_test_system="A498 renal" class_name=inactive
compound=CCCCCCCCNC(=O)[C@@H](N)CSCOC(C)=O target_or_test_system="A498 renal" class_name=inactive
compound=O=C1C(c2c(O)[nH]c3ncccc23)=Nc2ccccc21 target_or_test_system="A498 renal" class_name=inactive
compound="CCOC(=O)CC1CSC(N/N=C/c2ccc(O)cc2)=N1 (stereo not given)" target_or_test_system="A498 renal" class_name=inactive
compound=CN1CCN(CC(=O)N(C)c2ccc(N=C(c3ccccc3)c3c(O)[nH]c4ccc([N+](=O)[O-])cc34)cc2)CC1 target_or_test_system="A498 renal" class_name=inactive
compound=N#C/C(Sc1nc2sc3c(c2c(=O)n1Cc1ccccc1)CCCC3)=C1/SC=C(c2ccc(Cl)cc2)N1c1ccccc1 target_or_test_system="A498 renal" class_name=inactive
compound="O=C1OCC2=C1C(c1cccc(F)c1)c1cc3c(cc1N2CCO)CCC3 (stereo not given)" target_or_test_system="A498 renal" class_name=active
compound=Cc1nc2c(c(-c3ccccc3)n1)Cc1c(ccc3ccccc13)O2 target_or_test_system="A498 renal" class_name=inactive
compound=O=C(Nc1ncc(Cc2cc(C(F)(F)F)ccc2Cl)s1)C(=S)N1CCOCC1 target_or_test_system="A498 renal" class_name=inactive
compound=COc1ccc(-c2csc(NC(=O)CSc3nc(C)cc(=O)[nH]3)n2)cc1 target_or_test_system="A498 renal" class_name=inactive

* * *

Tested on: HOP-92 NSCLC
assay.comment: NCI-60 one-dose screen, 48 h
measurement.context: 10 µM unless noted
Compounds without any hit were thinned out: in the full panel of roughly 83,000, 20% have a hit. Activity calls are given as the source filed them. How the source made its calls: active means growth percent below 10; inactive means the rest.
Outcomes: active, inactive

compound=COc1ccc(-c2cc(-c3ccc(Cl)cc3)c(C#N)c(=O)n2CCCCC(=O)NO)cc1 class_name=inactive
compound=Oc1cccc(-c2nc(-c3n[nH]c(=S)n3-c3ccccc3)cc3c2[nH]c2ccccc23)c1 class_name=inactive
compound=COc1ccc(Cn2cc3c(c2)-c2oncc2CC3)cc1 class_name=inactive
compound=O=C(Nc1ccccc1C(F)(F)F)C1=NCCCCN1 class_name=inactive
compound=C=C1C(=O)O[C@H]2[C@H]1CC/C(CNC(=O)/C=C/c1cc(OC)c(OC)c(OC)c1)=C\CC[C@@]1(C)O[C@@H]21 class_name=active
compound=COC(=O)c1c(C)nc(C)c2c1C(=O)C(Br)=C(NCCN1CCOCC1)C2=O class_name=inactive
compound=Oc1ccc(C(c2ccc(O)cc2)c2ccc(Cl)cn2)cc1 class_name=active
compound=CCN(CC)CCOc1ccc(/C(=C(\C)Cc2ccc(OC)cc2)c2ccc(O)cc2)cc1 class_name=active
compound=O=C(Oc1ccccc1)c1cc(O)c(O)c(O)c1 class_name=inactive
compound="CN1CC(c2ccccc2)C(C(=O)c2ccc(Br)cc2)C12C(=O)Nc1ccccc12 (stereo unspecified)" class_name=inactive
compound=COC1=C(OC)C(=O)C(CCCCCCCCCCO)=C(C)C1=O class_name=inactive
compound="Cc1[nH]c(C(=O)Nc2ccccc2OC2CCNC2)c(Cl)c1Cl (stereo unspecified)" class_name=inactive
compound=c1ccc(Cn2cc3c(c2)-c2nc(Nc4ccccc4)ncc2CC3)cc1 class_name=inactive
compound=COc1ccc(NC(=O)c2sc3nc(C)c(C(=O)c4ccccc4)cc3c2N)cc1 class_name=inactive
compound="O=C(/C=C/C12c3ccccc3C(c3ccccc31)C1C(=O)NC(=O)C12)c1cccs1 (stereo unspecified)" class_name=inactive
compound="COc1cc(C2CC(c3cccc(Nc4ccncc4)c3)=Nc3c(N)ncnc3N2)cc(OC)c1OC (stereo unspecified)" class_name=inactive
compound=O=C1NCCS(=O)(=O)/C1=C\C=C\c1cccc(C(F)(F)F)c1 class_name=inactive
compound=CCCCCCCCNC(=O)[C@@H](N)CSCOC(C)=O class_name=inactive
compound=COc1cc(C(=O)c2c(-c3ccccc3)oc3ccccc23)cc(OC)c1O class_name=inactive
compound=Oc1ccc(C2OCCO2)c2cccnc12 class_name=inactive
compound=O=C(c1ccccc1)[C@@H](c1ccccc1)[C@]1(O)C(=O)Nc2ccccc21 class_name=inactive

* * *

Test system: SW-620 colon
assay.comment: NCI-60 one-dose screen, 48 h
measurement.context: 10 µM unless noted
About 83,000 compounds went through this panel and 20% of them were active in at least one assay; those are over-represented in the sample as a whole. Active and inactive are the calls of the source. How the source made its calls: active means growth percent below 10; inactive means the rest.
Possible outcomes: yes (1) for active, no (0) for inactive

compound=C=C(C)Cn1c(SCC(=O)c2cccs2)nc2sc3c(c2c1=O)CCCC3 class_name="no (0)"
compound=CC(C)(C)n1cc(-c2ccnc(NCCNS(=O)(=O)c3cccc4ccccc34)c2)c(-c2cccc(O)c2)n1 class_name="no (0)"
compound=COc1cccc(C(=O)Nc2cccc(NC(=O)c3ccccn3)c2)c1 class_name="no (0)"
compound=Cc1nn(-c2ccccc2)c(Oc2ccccc2)c1/C=N/NC(=O)Cn1c(=O)sc2ccccc21 class_name="no (0)"
compound="O=c1n(C2OC(CO)C(O)C2O)ccc2nccn12 (centres undefined)" class_name="no (0)"
compound=COc1cc(/C=C2\C(=O)N(CCOc3cc(O)c4c(=O)cc(-c5ccccc5)oc4c3)c3ccccc32)cc(OC)c1O class_name="no (0)"
compound=O=C(Nc1cccc(Cn2c(=O)[nH]c3ccc(Oc4ncccn4)cc3c2=O)c1)c1cccc(Cl)c1 class_name="no (0)"
compound=Cn1ccnc1C(=O)/C=C/c1ccc(C(=O)Nc2c(F)c(F)c(F)c(F)c2F)cc1 class_name="yes (1)"
compound=COc1ccc(C(=O)/C=C/Nc2cc(-c3ccccc3)nn2-c2ccccc2)cc1 class_name="no (0)"

* * *

Test system: U251 CNS
assay.comment: NCI-60 one-dose screen, 48 h
measurement.context: 10 µM unless noted
About 83,000 compounds went through this panel and 20% of them were active in at least one assay; those are over-represented in the sample as a whole. Calls of active or inactive are those of the source. How the source made its calls: active means growth percent below 10; inactive means the rest.
Possible outcomes: T = active, F = inactive

molecule=O=C1NCCS(=O)(=O)/C1=C\C=C\c1cccc(C(F)(F)F)c1 class_name=F
molecule=COc1cc(CNC(=O)CCCC/C=C/C(C)C)ccc1OCc1cn(-c2cccc([N+](=O)[O-])c2)nn1 class_name=F
molecule="COc1ccccc1/C=C/C1=C(C)CCC(c2ccccc2OC)C1C (stereo not given)" class_name=F
molecule=CCOC(=O)c1c(C)c2c(n1Cc1ccccc1)CSc1cc(C#N)c(=O)[nH]c1-2 class_name=F
molecule=Oc1ccc(C(c2ccc(O)cc2)c2ccc(Cl)cn2)cc1 class_name=F
molecule=CCN(CC)CCCNC(=O)c1c2c(n3ccccc13)C(=O)c1ncccc1C2=O class_name=T
molecule=Cn1cc(-c2csc(-c3cn(CCO)c4ccc(F)cc34)n2)c2cccnc21 class_name=F
molecule=CNC(=O)c1cc(Oc2ccc3nc(NC(=O)c4cc(C(F)(F)F)cc(C(F)(F)F)c4)sc3c2)ccn1 class_name=F
molecule=C[C@H]1c2ccccc2CN1CCCOc1cc2c(cc1OCC1CC1)C1(CCCC1)C(N)=N2 class_name=F
molecule=O=C(O)/C=C/c1cn(-c2ccccc2)nc1-c1ccc(F)cc1 class_name=F
molecule=COCCNC(=O)Cc1cc(-c2ccc(Cl)cc2)n(-c2ccccc2)c1C class_name=F
molecule=COc1cc2c(cc1OC)CC[N+](CCC[N+](C)(C)C)=C2 class_name=F
molecule=CC/C(=C(/c1ccc(Cl)cc1)c1ccc(OCCN2CCCCCC2)cc1)c1ccccc1 class_name=F
molecule=COc1ccc(NC(=O)c2ccc(NC3=C(c4ccc(Cl)cc4)C(=O)NC3=O)cc2)cc1 class_name=F
molecule=Cc1cc2c(C(C)C)c(O)c(O)c(/C=N/O)c2c(O)c1-c1c(C)cc2c(C(C)C)c(O)c(O)c(/C=N/O)c2c1O class_name=T
molecule=CCc1ccc(Cc2cnc(NC(=O)c3cc(C)oc3C)s2)cc1 class_name=F
molecule=C=C(c1ccc(OC)c(/C=C/C(=O)c2cc(OC)c(OC)c(OC)c2)c1)c1cc(OC)c(OC)c(OC)c1 class_name=T
molecule=COc1ccc2c(O)cc3c(c2c1)[C@H](CCl)CN3C(=O)c1cc2cc(NC(=O)CCN3CCOCC3)ccc2[se]1 class_name=T
molecule=C#Cc1cccc(Nc2nc(Cl)nc3cc(NC(=O)CCl)ccc23)c1 class_name=T
molecule=CCN1CCN(c2nc(NNC(=O)c3ccc(OC)cc3)nc(N3CCN(C(c4ccccc4)c4ccccc4)CC3)n2)CC1 class_name=F

* * *

System: U251 CNS
assay.comment: NCI-60 one-dose screen, 48 h (100 = growth as untreated, 0 = no growth, -100 = all killed)
measurement.context: 10 µM unless noted
About 83,000 compounds went through this panel and 20% of them were active in at least one assay; those are over-represented in the sample as a whole.
metric.name: growth (%)

compound=COc1cccc(C(=O)Nc2cccc(NC(=O)c3ccccn3)c2)c1 observed=109
compound=O=C(Nc1ccc(Oc2cccc(F)c2)c(Cl)c1)c1cnccn1 observed=25.7
compound="CCCC1Cc2cc(-n3nc(C)c4c3CC(C)(C)CC4=O)cc(NC3CCC(O)CC3)c2C(=O)N1 (centres undefined)" observed=41.5
compound=C=C(C)Cn1c(SCC(=O)c2cccs2)nc2sc3c(c2c1=O)CCCC3 observed=36.3
compound="Cc1nc2sc(C(=O)Nc3ccccc3)c(N)c2cc1C(O)c1ccccc1 (centres undefined)" observed=16.9
compound=COc1cc(CNC(=O)CCCC/C=C/C(C)C)ccc1OCc1cn(-c2ccc(C(F)(F)F)cc2)nn1 observed=46.7
compound=C=C(C[n+]1ccccc1)[C@@H]1CC[C@]2(C(=O)OC)CC[C@]3(C)[C@H](CC[C@@H]4[C@@]5(C)CCC(=O)C(C)(C)[C@@H]5CC[C@]43C)[C@@H]12 observed=82.8
compound="Nc1ncnc2c1N=C(c1ccc([N+](=O)[O-])cc1)CC(c1ccc3c(c1)OCO3)N2 (centres undefined)" observed=89
compound="COC1CC(O)C2=C(CC3C(/C(C)=C\\CC=C(C)C)CCC3(C)O2)C1=O (centres undefined)" observed=99
